A collection of sequences and their measured Kd
test system: TetR; assay: SPR; conditions: streptavidin surface, promoters at 30-50 RU, TetR 4-62 nM, regeneration with 1 M NaCl and 1 M MgCl2, running buffer, pH and temperature not given in the …
The response must be a number in nM with no trailing unit.

Some sequences with recorded Kd:
{"columns": ["Entry Sequence", "Kd [nM]"],
 "data": [
  ["CGCGCGCCTTTCTGCGTTTATATACTAGAGTCCCTATCAGTGATAGAGATTGACATCCCTATCAGTGATAGATATAATGTGCACTACTAGAGTAGTGGAGGTTACTAGATGGTGAGCAAGGGCGAGGAGCTGTTCACCGGGGTGGTGCCCATCCTGCGCG (double strand) [L10 promoter]", 5],
  ["CGCGCGCCTTTCTGCGTTTATATACTAGAGTCCCTATCAGTGATAGAGATTGACATCCCTATCAGTGATAGATATAATGCGCACTACTAGAGTAGTGGAGGTTACTAGATGGTGAGCAAGGGCGAGGAGCTGTTCACCGGGGTGGTGCCCATCCTGCGCG (double strand) [L09 promoter]", 6],
  ["CGCGCGCCTTTCTGCGTTTATATACTAGAGTCCCTATCAGTGATAGAGATTGACATCCCTATCAGTGATAGATATAATGGGCACTACTAGAGTAGTGGAGGTTACTAGATGGTGAGCAAGGGCGAGGAGCTGTTCACCGGGGTGGTGCCCATCCTGCGCG (double strand) [L11 promoter]", 6]
]}

With those in mind, consider the next sequence.
# input Give recorded Kd with TetR for the following sequence: CGCGCGCCTTTCTGCGTTTATATACTAGAGTCCCTATCAGTGATAGAGATTGACATCCCTATCAGTGATAGATATAATGAGCACTACTAGAGTAGTGGAGGTTACTAGATGGTGAGCAAGGGCGAGGAGCTGTTCACCGGGGTGGTGCCCATCCTGCGCG (double strand) [L12 promoter]
# output 8

Ref: paper PMC4575469
